Tested on: Fibroblast
EXPERIMENTAL PROTOCOL: Multiplex assay against human fibroblast
Type: toxicity, cell-based
PARTICULARS: 24 h, 1 µM, compound concentration 1 uM, replicate 1
In plain terms, low Population Mitotic Cells (%), meaning strictly below 50%, gives Fulfilled, and everything else gives Not fulfilled.

CN[C@@H](C)C(=O)N[C@H](C(=O)N1CCC[C@H]1C(=O)Nc1snnc1-c1ccccc1)C1CCCCC1 = Fulfilled
C[C@H](N)COC(=O)[C@@H](CCCCN)NC(=O)Cc1c(-c2ccc3ccccc3c2)[nH]c2c1ccc1ccccc12 = Fulfilled
Cc1noc(-c2ccc(-c3ccc(CC(=O)O)cc3)cc2)c1NC(=O)O[C@H](C)c1ccccc1Cl = Not fulfilled
CCCCCC(O)/C=C/[C@H]1C(=O)CC(O)C1C/C=C\CCCC(=O)O (stereo partly drawn) = Not fulfilled
CC(C)COc1ccc(CNC(=O)N(Cc2ccc(F)cc2)C2CCN(C)CC2)cc1 = Fulfilled

Kindly consider the entry below.
Query: Hi there! Is Population Mitotic Cells (%) for CN(C)C(=O)Cn1cc(-c2ccc(-c3cncc4ccccc34)cc2)cn1 below 50%, do you know?
Result: Not fulfilled

Cited source for all entries: ChEMBL document CHEMBL5058577
